Could you please report measured Relative activity compared with CNTO7160 for the items listed next?
- assay_system: Human ST2-fc (human) (UniProt Q01638)
- experimental_details: competition ELISA, coated ST2-fc, competitor IL33-his
Numbers only, in %.

{"binder": "5888-153-H1L2 (antibody, human IgG4 S228P, kappa, V domains shown) VH: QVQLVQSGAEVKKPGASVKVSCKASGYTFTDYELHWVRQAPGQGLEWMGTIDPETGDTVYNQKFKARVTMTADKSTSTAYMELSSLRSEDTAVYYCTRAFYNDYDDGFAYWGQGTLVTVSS VL: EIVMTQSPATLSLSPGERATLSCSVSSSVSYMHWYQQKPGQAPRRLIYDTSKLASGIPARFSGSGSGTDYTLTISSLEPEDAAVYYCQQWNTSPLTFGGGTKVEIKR", "measurement_units": "%", "Relative activity compared with CNTO7160": 134}

// below: Relative activity compared with CNTO7160 requested for another binder
Need Relative activity compared with CNTO7160 of 5887-41-H1L0 (antibody, human IgG4 S228P, kappa, V domains shown, Humanized antibody) VH: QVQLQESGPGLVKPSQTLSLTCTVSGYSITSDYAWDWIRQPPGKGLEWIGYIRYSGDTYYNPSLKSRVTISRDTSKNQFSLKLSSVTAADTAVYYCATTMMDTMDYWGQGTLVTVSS VL: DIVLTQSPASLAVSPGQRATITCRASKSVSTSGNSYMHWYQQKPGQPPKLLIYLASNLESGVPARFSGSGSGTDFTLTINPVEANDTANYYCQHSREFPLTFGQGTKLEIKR , thanks.
216
